Entry source: the supplement of paper PMC10126150

Tested on: ATP;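 note: ATP exposure 15 min at 22 °C before imaging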
method.summary: switch fluorescence ratio, 500 uM ATP over buffer (Cy3 cluster intensity, sum of 5 cycles each) (fold (ratio)); higher = stronger signal-on switching upon ATP binding; sequences stand for … in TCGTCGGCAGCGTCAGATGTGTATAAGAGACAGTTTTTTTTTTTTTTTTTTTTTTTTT…TC
measurement.setup: aptamer strand: ATP DNA aptamer (quencher-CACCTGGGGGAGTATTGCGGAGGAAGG + anchor), 100 nM annealed; ATP concentration: 500 uM

# entry.sequence, study.target, switch fluorescence ratio
measured = [
    ("TAGTTACCCG", "ATP", 0.979),
    ("TTGAGTTGTT", "ATP", 1.02),
    ("TTGTCAGGGT", "ATP", 0.995),
    ("ATCGGGGTTG", "ATP", 0.958),
    ("TACGAGGTGT", "ATP", 1.06),
    ("GAGGATTATT", "ATP", 0.969),
    ("TTGTCAATGT", "ATP", 1.06),
    ("GCCCTTTTAA", "ATP", 0.982),
    ("ACCATGTATC", "ATP", 0.998),
    ("TGGAAAATTT", "ATP", 1.01),
    ("GGACGCATGG", "ATP", 1.33),
    ("CGTGCTCAGA", "ATP", 0.996),
    ("TGGTTTGTGG", "ATP", 0.974),
    ("CATGGAACCT", "ATP", 1.92),
    ("CGAGTTAGGC", "ATP", 1.03),
    ("TGGGACAGGG", "ATP", 1.03),
    ("GTATGCGGAG", "ATP", 0.996),
    ("TTGTAAATT", "ATP", 1.02),
    ("ACCCATGCTT", "ATP", 1.06),
    ("CATGAGGAGT", "ATP", 1.01),
    ("AGATGAGGAA", "ATP", 1),
    ("TTGATTGTTG", "ATP", 0.982),
    ("TTTGTGTTTT", "ATP", 1.03),
    ("ACATCGGCTT", "ATP", 0.998),
    ("CTCTGGGGTA", "ATP", 1.05),
    ("GAGGTTGATG", "ATP", 1.01),
    ("AGTCGGCTGT", "ATP", 0.994),
    ("GTTGAAAAAA", "ATP", 1.31),
    ("ATTGTGCTGT", "ATP", 0.976),
    ("TTAAGGGATA", "ATP", 1.03),
    ("ATGATATTGA", "ATP", 0.99),
    ("GCAAAAATGT", "ATP", 1),
    ("GGGTGGATGT", "ATP", 1.01),
    ("CCGGAGGGGG", "ATP", 1.05),
    ("TCGGGGTTTC", "ATP", 1.05),
    ("GATAGTGAAA", "ATP", 1.02),
    ("ACGGTTTCGT", "ATP", 1.01),
    ("CCAAGTCCTG", "ATP", 0.97),
    ("GGGCAGAAAT", "ATP", 1.01),
    ("TAATTTAGAA", "ATP", 0.975),
    ("TTTGATGGTT", "ATP", 1.01),
    ("ATAGTAATCT", "ATP", 0.993),
    ("AGGTAATCTT", "ATP", 0.979),
    ("TGCGGTATGT", "ATP", 1.02),
    ("TTTACTAGCA", "ATP", 1.04),
    ("CTAGGATGTA", "ATP", 0.986),
    ("TTGTAGTGGG", "ATP", 1.02),
    ("TTGGGTAATT", "ATP", 0.998),
    ("ATTACTAAAT", "ATP", 1.01),
    ("GAGGTATTTG", "ATP", 1.02),
    ("GAGTATTTAG", "ATP", 0.98),
    ("GACGGTGTGC", "ATP", 1.08),
    ("TGTCTATCGG", "ATP", 0.974),
    ("TTGCAAAAAT", "ATP", 1),
    ("ATACGGTAAT", "ATP", 1.16),
    ("ACTGGGGGGG", "ATP", 0.995),
    ("TAATATGGGT", "ATP", 0.988),
    ("CCACTTATGC", "ATP", 1.13),
    ("ACTGATTTGT", "ATP", 0.996),
    ("TGCGTTGCGG", "ATP", 0.978),
    ("GTCGTATTTG", "ATP", 0.982),
    ("TTTCAGTATG", "ATP", 1.02),
    ("ACTTATCTAC", "ATP", 1.05),
    ("AGGACTAAAG", "ATP", 0.982),
    ("TCAGCGGGTT", "ATP", 1.04),
    ("TTAAGAGGTT", "ATP", 0.971),
    ("CTGGGGGTTC", "ATP", 1.01),
    ("CCGGGGTAAG", "ATP", 1.03),
    ("CCGTTGCGTG", "ATP", 1),
    ("GGAATTCTCC", "ATP", 1.21),
    ("AATTTGTAAG", "ATP", 1.01),
    ("ATTAAGGGTG", "ATP", 1.04),
    ("CTTTACGTCG", "ATP", 0.982),
    ("GCGTTGGCCA", "ATP", 1.01),
    ("TCGAATATTT", "ATP", 1.02),
    ("AGGGTTAGTC", "ATP", 1.03),
    ("CGGACCTAGT", "ATP", 0.969),
    ("TCGTGTGACT", "ATP", 0.99),
    ("TGACGCATAG", "ATP", 1.7),
    ("ACGTGTGTTT", "ATP", 1.01),
    ("CACTAATGGT", "ATP", 1.07),
    ("ATAGGATATA", "ATP", 1.03),
    ("CGGGGAAGTT", "ATP", 0.985),
    ("TGTATTGGTT", "ATP", 0.99),
    ("GTTGTGTCTT", "ATP", 0.991),
    ("TAGTAATCTT", "ATP", 1),
]
